- System: HSSY-II tumor spheroid viability
- assay.protocol: Anticancer human tumor HSSY-II cell line growth inhibition; active means viability on the fitted dose curve at most 10% of control; inactive means the rest;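 further: spheroids exposed to compounds for seven days before reading; percent of DMSO vehicle control viability so 100% = untreated level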
- measurement.setup: second compound 0.0949 µM; first compound 0.0316 µM; spheroids with HUVEC and MSC
The reply should be one of these categories: label 1 for active, label 0 for inactive

Could you please tell me the result logged for CC1COCCN1c1cc(-c2ccnn2C)c2ccnc(-c3ccn[nH]3)c2n1 (stereo unspecified) + CC[C@@]1(O)C(=O)OCc2c1cc1n(c2=O)Cc2cc3c(CN(C)C)c(O)ccc3nc2-1 in this assay?
label 1

Could you please tell me the result logged for COc1cc(C)[nH]c(=O)c1CN1CCc2c(Cl)cc(C(OC)C3COC3)c(Cl)c2C1=O (stereo unspecified) + CC[C@@]1(O)C(=O)OCc2c1cc1n(c2=O)Cc2cc3c(CN(C)C)c(O)ccc3nc2-1 in this assay?
label 0

Could you please tell me the result logged for [2H]c1nc(C)nc([2H])c1-c1cc(NC[C@@H](C)c2cccc3c(C(=O)NC)ccnc23)ncn1 + CC[C@@]1(O)C(=O)OCc2c1cc1n(c2=O)Cc2cc3c(CN(C)C)c(O)ccc3nc2-1 in this assay?
label 0

Could you please tell me the result logged for COc1ccc([C@@H](O)c2cc(-c3ncnc4cc(N5CCOCC5)ccc34)c(F)cc2Cl)nn1 + CC[C@@]1(O)C(=O)OCc2c1cc1n(c2=O)Cc2cc3c(CN(C)C)c(O)ccc3nc2-1 in this assay?
label 1

Could you please tell me the result logged for Cc1cc(C)c(CNC(=O)c2cc(-c3ccc(CN4CCOCC4)cc3)cc3c2cnn3C2CCCC2)c(=O)[nH]1 + CC[C@@]1(O)C(=O)OCc2c1cc1n(c2=O)Cc2cc3c(CN(C)C)c(O)ccc3nc2-1 in this assay?
label 1

Could you please tell me the result logged for CC(C)n1c(=O)n(C)c2cnc3cc(F)c(-c4ccc(OCCCN5CCCCC5)nc4)cc3c21 + CC[C@@]1(O)C(=O)OCc2c1cc1n(c2=O)Cc2cc3c(CN(C)C)c(O)ccc3nc2-1 in this assay?
label 0

// provenance: PubChem BioAssay AID1845204
